- assaySummary: antimalarial activity against Dd2 strain (AID 2302)
- reportedConditions: P. falciparum Dd2 in RBCs, LDH growth readout, 72 h; at 2 µM
Calls of active or inactive are those of the source.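 Rule for the calls: active = growth inhibition above 50% at the single 2 µM test dose, taken to imply half-maximal potency below 2 µM; inactive = the rest.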
Classes used: active, inactive

1) NC(=S)Cc1ccc2c(c1)OCO2 : inactive
2) COc1ccc2c(NN=Cc3cccc(C)n3)cc(-c3ccccc3)nc2c1 : inactive
3) CN1CCCc2ccc(NC(=O)c3ccc(-c4cc(C(F)(F)F)nn4C)s3)cc2C1 : inactive
4) CC1CCN(CCCNc2ccc(C(=O)Nc3ccc(C(F)(F)F)cc3)cc2[N+](=O)[O-])CC1 : active
5) O=C(Nc1ccc(Cn2ncc(N3CCCNCC3)c(Cl)c2=O)cc1)Nc1ccc(SC(F)(F)F)cc1 : active
6) O=C(c1ccc(Cl)cc1Cl)N1CCCC(C(F)(F)F)C1 (centres undefined) : inactive
7) OC(CNCc1ccccc1)c1cc(OCc2ccccc2)cc(OCc2ccccc2)c1 (centres undefined) : active
8) O=C(Nc1cccc(CN2CCCN(Cc3ccc(O)cc3)CC2)c1)c1cc(F)cc(F)c1 : inactive
9) Cc1ccc2c(c1)NC[C@@]21CCN(C[C@@H](O)C2CCN(c3ccnc(Cl)c3)CC2)C[C@@H]1C : active

Measured values drawn from PubChem BioAssay for this set.
